- TEST SYSTEM: Solute carrier family 2, facilitated glucose transporter member 1 (Homo sapiens) (UniProt P11166)
- Sequence (P11166 whole entry): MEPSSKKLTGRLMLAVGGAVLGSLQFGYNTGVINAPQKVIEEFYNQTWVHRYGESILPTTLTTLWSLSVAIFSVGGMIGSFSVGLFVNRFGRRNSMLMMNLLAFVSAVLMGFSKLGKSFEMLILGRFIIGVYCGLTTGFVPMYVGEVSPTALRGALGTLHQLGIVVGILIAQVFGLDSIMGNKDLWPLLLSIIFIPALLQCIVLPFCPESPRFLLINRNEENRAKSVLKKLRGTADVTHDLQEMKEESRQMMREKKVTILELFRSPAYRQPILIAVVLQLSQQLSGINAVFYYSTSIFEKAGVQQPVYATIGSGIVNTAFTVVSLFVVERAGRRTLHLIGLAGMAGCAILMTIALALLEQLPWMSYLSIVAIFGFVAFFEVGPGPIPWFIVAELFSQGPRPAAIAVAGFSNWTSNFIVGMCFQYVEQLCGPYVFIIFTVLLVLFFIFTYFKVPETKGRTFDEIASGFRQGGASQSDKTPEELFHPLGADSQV
- METHOD: ST_JUDE_LEISH: Cytotoxicity at 2uM final concentration against transgenic Leishmania Mexicana promastigotes LmGLUT1 that are glucose transport deficient and complemented with the human glucose transporter GLUT1. Activity is measured by DNA content using SYBR green in vitro
- Format: functional
METRIC: inhibition (%)

Nc1nc(N)c2cc(CNc3ccc(Cl)c(Cl)c3)ccc2n1: 8.27
CC(C)(CN)c1nc(-c2ccc(Cl)c(O)c2)c(-c2ccncc2)[nH]1: -2.49
CCCc1cc(OC)c(CC2c3cc(O)c(Cl)cc3C(c3ccccc3)CN2C)cc1OC (configuration not stated): 7.84
COc1ccc(NC(=O)CCNc2cc(C)nc(NCc3cccc(C)c3)n2)cc1: -0.09
Cc1nnsc1C(=O)Nc1cccc(-c2ccc(-c3nc4cc(F)ccc4[nH]3)s2)c1: 1.06
C[C@@H]([C@@H](CCCc1ccc(Cl)cc1)C(=O)N[C@H](C(=O)Nc1cccnc1)C(C)(C)C)N(O)C=O: 1.13
CCC1(CC)CN(c2ccccc2)c2ccc(O)cc2S(=O)(=O)C1CC(C)C (configuration not stated): 0.72
Nc1cccc(CNCc2ccc(-c3cccc(-c4nc5cc(F)ccc5[nH]4)c3)cc2)c1: -0.29
CNCc1ccc(-c2cccc(CNCc3ccc(-c4ccccc4)cc3)c2)c(C(=O)OC)c1: 1.39
COc1ccc2c(=NN=Cc3c(OC)ccc4ccccc34)cc(C)[nH]c2c1: 2.05
CCN1CCN(c2cc(C)c3cc(NC(=O)c4ccc(N(CC)CC)cc4)ccc3n2)CC1: -0.29
O=S(=O)(Nc1cccc(CCN2CCC(N3CCCCC3)CC2)c1)c1ccccc1C(F)(F)F: 1.15
CCNC(=O)Nc1ccc(-c2cnc(N)c(-c3nc4ccc(OC)cc4[nH]3)c2)cc1: 3.5
COc1cc2c(c(Cl)c1OC)CCN(C(=O)C(F)(F)F)CC2c1ccccc1 (configuration not stated): 6.36
CCCCN(CCCC)/C(=N/C(=N)NCc1ccc(Cl)c(Cl)c1)NCCCCCCN/C(=N\C(=N)NCc1ccc(Cl)c(Cl)c1)N(CCCC)CCCC: -0.73
Cc1nc(N)nc(N)c1OCc1cccc2ccccc12: 0.2
O=C(/C=C/c1ccc(C(F)(F)F)cc1)NCCCCCN1CCCN(C(=O)Nc2ccc(Cl)c(Cl)c2)CC1: -0.66
COc1ccc(NC(=O)CCNc2cc(C)nc(NCc3ccccc3C)n2)cc1: 5.23
O=C(CCc1cccnc1)Nc1ccc(-c2cccc(-c3nc4cc(F)ccc4[nH]3)c2)cc1: 10.7
Cc1cccc2nc(-c3ccc(-c4cccc(CNC5CCN(C)CC5)c4)s3)[nH]c12: -2.43
COc1cccc(NC(=O)Nc2ccc(-c3oc(C(=O)NCC(c4ccccc4)N(C)C)cc3-c3ccncc3)cc2)c1 (configuration not stated): 5.08
CCC(ON1C(N)=NC(N)=NC1(C)C)c1ccc(Cl)cc1 (configuration not stated): 6.11

====

Quick reference for inhibition among some molecules
- TEST SYSTEM: Glucose transporter (Leishmania mexicana) (UniProt O61059)
- METHOD: ST_JUDE_LEISH: Cytotoxicity at 2uM final concentration against transgenic Leishmania Mexicana promastigotes LmGT2 that are glucose transport deficient and complemented with the L. Mexicana glucose transporter 2. Activity is measured by DNA content using SYBR green in vitro
- Assay type: functional
METRIC: inhibition (%)

O=S(=O)(Nc1cccc(CCN2CCC(N3CCCCC3)CC2)c1)c1cccc(C(F)(F)F)c1: 0.82
Cc1noc(C)c1C(=O)N1CCc2cc3nccc(N4CCN5CCC[C@H]5C4)c3cc21: -0.53
Cn1cnc(-c2ccc3c(c2)CCN(CCC2CCC(NC(=O)/C=C/c4ccc(F)cc4)CC2)CC3)c1 (stereo not given): 60.9
O=C(Nc1ccccc1)N(Cc1ccc(-c2cccc(CNCc3ccc4c(c3)OCO4)c2)cc1)C1CCN(Cc2ccccc2)CC1: 2.9
O=C(NCc1ccc(F)cc1)Nc1ccc(-c2cccc(-c3nc4cc(F)ccc4[nH]3)c2)cc1: -1
CCCCCCCN1CC[C@@H](CCCc2ccnc3ccc(OCCC4CCNCC4)cc23)[C@@H](CC)C1: 6.53
Cc1[nH]c2ccccc2c1C(=O)CSc1nn(-c2ccccc2)c(=S)s1: 2.44
Cc1ccc2[nH]c(C)cc(=NN=Cc3ccccc3Cl)c2c1: 0.08
CCOC(=O)c1ccc(-c2c(C(F)(F)F)noc2-c2cc(CC)c(OC)cc2O)o1: 1.45
Cc1cccc2nc(-c3ccc(-c4cccc(CNCc5cnn(-c6ccccc6)n5)c4)s3)[nH]c12: 1.93
Cc1nc2nc(N)nc(N)c2c(C)c1Cc1ccccc1: 1.2
CN1CCC(NCc2ccc(-c3cnc(NCc4ccccc4)nc3)cc2)CC1: 2.57
O=[N+]([O-])c1ccc2c(c1)c1ccccc1n2Cc1ccccc1O: -2.69
Cc1cccc2nc(-c3cccc(-c4ccc(NC(=O)c5cccc(C(N)=O)c5)cc4)c3)[nH]c12: 1.38
Cc1cc(Cl)ccc1OC(C)C(=O)N1CCc2ccccc21 (stereo not given): -0.66
CCCCCCOc1ccc(C(=O)NCCCC2CCN(CCCCCNC(=O)C=Cc3ccc(Cl)c(Cl)c3)CC2)cc1: 3.91
CN(C)CCNCc1cccc(-c2ccc3c(Nc4ccc(F)cc4Cl)ccnc3c2)c1: 5.03
COCCCN=C(S)NN=C(C)c1ccccn1: 0
CC(C)(CNC(=O)C1CCN(CCOc2ccc(F)c(F)c2)CC1)c1nc(-c2ccc(Cl)c(O)c2)c(-c2ccncc2)[nH]1: 5.08
CCCCCCNC(=O)C1Cc2c([nH]c3cc(Cl)ccc23)C2(CCN(CCC)CC2)N1 (stereo not given): 2.32
CCCC1(NC[C@@H](O)[C@H](Cc2ccccc2)NC(=O)c2cc(NCC)cc(N3CCCCS3(=O)=O)c2)CCCCC1: 4.36
Nc1cccc(CNCc2cccc(-c3cccc(-c4nc5cc(C(F)(F)F)ccc5[nH]4)c3)c2)c1: 1.43
CN1CCC[C@H]1COc1ccc(CN2CC[C@H](NC(=O)c3ccc(Cl)c(Cl)c3)C2)c2ccccc12: 6.54
O=C(Cn1c(CCc2cccc(F)c2F)cc(=O)c2ccccc21)N(CCN1CCCC1)Cc1ccc(-c2ccc(C(F)(F)F)cc2)cc1: 2.03
Nc1nc(N)c2c(ccc3c2ccn3C2CCCCC2)n1: 25.7
Cc1cccc2nc(-c3cccc(-c4cccc(NC(=O)c5ccncc5)c4)c3)[nH]c12: 4.27
O=C(c1cc(-c2ccco2)n[nH]1)N1CCN(S(=O)(=O)c2ccc(Br)cc2)CC1: 7.48
CCN(c1ccccc1)S(=O)(=O)c1ccc(NC(=O)c2cc(-c3cc(C)ccc3O)n[nH]2)cc1: -1.84
COc1ccc2nccc([C@@H](O)CN3CCC(NCCOc4cccc(C(F)(F)F)c4Cl)CC3)c2c1: 6.66
Cc1ccn2cc(-c3ccc(NC(=O)c4ccc(Br)o4)cc3)nc2c1: 0.61
